- assaySystem: GST-Co-NF-kB (Capsaspora owczarzaki, UniProt F1ARL5 200-546)
- Sequence: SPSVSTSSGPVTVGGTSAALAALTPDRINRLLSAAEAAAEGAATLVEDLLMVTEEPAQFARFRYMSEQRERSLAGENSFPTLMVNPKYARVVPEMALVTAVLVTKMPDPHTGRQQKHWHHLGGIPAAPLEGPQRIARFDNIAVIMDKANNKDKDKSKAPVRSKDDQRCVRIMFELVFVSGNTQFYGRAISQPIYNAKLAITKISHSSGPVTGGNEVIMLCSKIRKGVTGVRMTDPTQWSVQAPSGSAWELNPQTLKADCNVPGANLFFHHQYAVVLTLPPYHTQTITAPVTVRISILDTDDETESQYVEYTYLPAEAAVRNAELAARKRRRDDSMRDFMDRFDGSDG
- assaySummary: protein-binding microarray (PBM); PBM: ~300 nM protein, 6 mM HEPES pH 7.8, 80 mM KCl, 0.5 mM EDTA, 0.5 mM EGTA, 6% glycerol, 35 ng/ul poly-dIdC, 1% milk, 1 h, room temperature; high values mean tight binding
- conditionLabel: dsDNA, one strand shown
Decide using binding signal: a value greater than or equal to 3 z-score is Yes, a smaller one is No.

>  <querySequence>
CCGATTAACATCAGGGAGTACCCTGATGTTAATCGGGTCTTGATTCGCTTGACGCTGCTG

>  <classAssignment>
No

$$$$
>  <querySequence>
CCGATTAACATCAACTAATTCCCTGATGTTAATCGGGTCTTGATTCGCTTGACGCTGCTG

>  <classAssignment>
Yes

$$$$
>  <querySequence>
CCGATTAACATCAGGGAAAAGGATGATGTTAATCGGGTCTTGATTCGCTTGACGCTGCTG

>  <classAssignment>
No

$$$$
>  <querySequence>
CCGATTAACATCAGGGGGTTCTATGATGTTAATCGGGTCTTGATTCGCTTGACGCTGCTG

>  <classAssignment>
No

$$$$
>  <querySequence>
CCGATTAACATCAAGGGGGGAGATGATGTTAATCGGGTCTTGATTCGCTTGACGCTGCTG

>  <classAssignment>
Yes

$$$$
>  <querySequence>
CCGATTAACATCAGGATTTCCCCTGATGTTAATCGGGTCTTGATTCGCTTGACGCTGCTG

>  <classAssignment>
Yes

$$$$
>  <querySequence>
CCGATTAACATCAGGGTAATTTATGATGTTAATCGGGTCTTGATTCGCTTGACGCTGCTG

>  <classAssignment>
Yes

$$$$
>  <querySequence>
CCGATTAACATCAGGGGGGGAAATGATGTTAATCGGGTCTTGATTCGCTTGACGCTGCTG

>  <classAssignment>
Yes

$$$$
>  <querySequence>
CCGATTAACATCAAGGGAGTACCTGATGTTAATCGGGTCTTGATTCGCTTGACGCTGCTG

>  <classAssignment>
No

$$$$
>  <querySequence>
CCGATTAACATCAGAAAAGTCCCTGATGTTAATCGGGTCTTGATTCGCTTGACGCTGCTG

>  <classAssignment>
No

$$$$
>  <querySequence>
CCGATTAACATCAAATTCCCGCCTGATGTTAATCGGGTCTTGATTCGCTTGACGCTGCTG

>  <classAssignment>
Yes

$$$$
>  <querySequence>
CCGATTAACATCACGGAACTCCCTGATGTTAATCGGGTCTTGATTCGCTTGACGCTGCTG

>  <classAssignment>
No

$$$$
>  <querySequence>
CCGATTAACATCAGGACTACCCCTGATGTTAATCGGGTCTTGATTCGCTTGACGCTGCTG

>  <classAssignment>
No

$$$$
>  <querySequence>
CCGATTAACATCAGGGAAGCCCCTGATGTTAATCGGGTCTTGATTCGCTTGACGCTGCTG

>  <classAssignment>
No

$$$$
>  <querySequence>
CCGATTAACATCAACTTGGGAAATGATGTTAATCGGGTCTTGATTCGCTTGACGCTGCTG

>  <classAssignment>
No

$$$$
>  <querySequence>
CCGATTAACATCAGGGGAAGGGATGATGTTAATCGGGTCTTGATTCGCTTGACGCTGCTG

>  <classAssignment>
Yes

$$$$
>  <querySequence>
CCGATTAACATCAGGGGGAGAACTGATGTTAATCGGGTCTTGATTCGCTTGACGCTGCTG

>  <classAssignment>
Yes

$$$$
>  <querySequence>
CCGATTAACATCACTGGATTCCCTGATGTTAATCGGGTCTTGATTCGCTTGACGCTGCTG

>  <classAssignment>
No

$$$$

###

- assaySystem: GST-Dm-Relish (Drosophila melanogaster, UniProt Q94527 99-473)
- Sequence: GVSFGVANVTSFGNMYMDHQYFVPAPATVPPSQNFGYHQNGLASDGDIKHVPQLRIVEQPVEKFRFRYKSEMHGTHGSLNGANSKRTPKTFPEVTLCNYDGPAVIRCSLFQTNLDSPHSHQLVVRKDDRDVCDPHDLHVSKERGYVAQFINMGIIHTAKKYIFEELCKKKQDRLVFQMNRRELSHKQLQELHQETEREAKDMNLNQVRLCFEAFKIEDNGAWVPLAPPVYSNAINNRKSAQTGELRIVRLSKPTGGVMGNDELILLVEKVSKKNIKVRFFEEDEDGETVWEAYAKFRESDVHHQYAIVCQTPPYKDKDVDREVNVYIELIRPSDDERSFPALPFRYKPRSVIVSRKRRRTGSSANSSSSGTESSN
- assaySummary: protein-binding microarray (PBM); PBM: ~300 nM protein, 6 mM HEPES pH 7.8, 80 mM KCl, 0.5 mM EDTA, 0.5 mM EGTA, 6% glycerol, 35 ng/ul poly-dIdC, 1% milk, 1 h, room temperature; Ap Aiptasia and Nv Nematostella (sea anemones) / Co Capsaspora / Aq Amphimedon (sponge) / Dm Drosophila / Hu human; RHD is the Rel homology domain; high values mean tight binding
- conditionLabel: dsDNA, one strand shown
Entries and their measured binding signal follow.

>  <querySequence>
CCGATTAACATCAGGGTATTACCTGATGTTAATCGGGTCTTGATTCGCTTGACGCTGCTG

>  <binding signal, z-score>
5.28

$$$$
>  <querySequence>
CCGATTAACATCAAAAAATTCCGTGATGTTAATCGGGTCTTGATTCGCTTGACGCTGCTG

>  <binding signal, z-score>
2.44

$$$$
>  <querySequence>
CCGATTAACATCAGGAAGCCCCATGATGTTAATCGGGTCTTGATTCGCTTGACGCTGCTG

>  <binding signal, z-score>
5.38

$$$$
>  <querySequence>
CCGATTAACATCACACTTTCCCCTGATGTTAATCGGGTCTTGATTCGCTTGACGCTGCTG

>  <binding signal, z-score>
2.75

$$$$
>  <querySequence>
CCGATTAACATCACGTACTTCCCTGATGTTAATCGGGTCTTGATTCGCTTGACGCTGCTG

>  <binding signal, z-score>
7.92

$$$$
>  <querySequence>
CCGATTAACATCAAAATTCCCGCTGATGTTAATCGGGTCTTGATTCGCTTGACGCTGCTG

>  <binding signal, z-score>
5.76

$$$$
>  <querySequence>
CCGATTAACATCATTTGGGAAAATGATGTTAATCGGGTCTTGATTCGCTTGACGCTGCTG

>  <binding signal, z-score>
1.08

$$$$
>  <querySequence>
CCGATTAACATCAGGGGAACACCTGATGTTAATCGGGTCTTGATTCGCTTGACGCTGCTG

>  <binding signal, z-score>
9.19

$$$$
>  <querySequence>
CCGATTAACATCACCCCTCCCCATGATGTTAATCGGGTCTTGATTCGCTTGACGCTGCTG

>  <binding signal, z-score>
3.67

$$$$
>  <querySequence>
CCGATTAACATCAGGAATCTACCTGATGTTAATCGGGTCTTGATTCGCTTGACGCTGCTG

>  <binding signal, z-score>
2.24

$$$$
>  <querySequence>
CCGATTAACATCAGGGCATTCCATGATGTTAATCGGGTCTTGATTCGCTTGACGCTGCTG

>  <binding signal, z-score>
1.84

$$$$
>  <querySequence>
CCGATTAACATCAGAAAATTACCTGATGTTAATCGGGTCTTGATTCGCTTGACGCTGCTG

>  <binding signal, z-score>
4.45

$$$$
>  <querySequence>
CCGATTAACATCAAAAAGTTCCCTGATGTTAATCGGGTCTTGATTCGCTTGACGCTGCTG

>  <binding signal, z-score>
6.54

$$$$
>  <querySequence>
CCGATTAACATCAAGTACTTCCCTGATGTTAATCGGGTCTTGATTCGCTTGACGCTGCTG

>  <binding signal, z-score>
8.12

$$$$
>  <querySequence>
CCGATTAACATCAAGGTGTTCCCTGATGTTAATCGGGTCTTGATTCGCTTGACGCTGCTG

>  <binding signal, z-score>
4.31

$$$$
>  <querySequence>
CCGATTAACATCAAAAACTCCCCTGATGTTAATCGGGTCTTGATTCGCTTGACGCTGCTG

>  <binding signal, z-score>
8.62

$$$$
>  <querySequence>
CCGATTAACATCAACATTACCCCTGATGTTAATCGGGTCTTGATTCGCTTGACGCTGCTG

>  <binding signal, z-score>
1.42

$$$$
>  <querySequence>
CCGATTAACATCAGCAATTCCCCTGATGTTAATCGGGTCTTGATTCGCTTGACGCTGCTG

>  <binding signal, z-score>
3.8

$$$$
